# EC50 listing for each entry below
target: Melanocortin receptor 5 (Homo sapiens); assay: In vitro effective concentration towards human Melanocortin 5 receptor (MC5R) was determined by a SPA-based cAMP assay in melanoma cells; type: cell-based
Sequence (P33032 whole entry): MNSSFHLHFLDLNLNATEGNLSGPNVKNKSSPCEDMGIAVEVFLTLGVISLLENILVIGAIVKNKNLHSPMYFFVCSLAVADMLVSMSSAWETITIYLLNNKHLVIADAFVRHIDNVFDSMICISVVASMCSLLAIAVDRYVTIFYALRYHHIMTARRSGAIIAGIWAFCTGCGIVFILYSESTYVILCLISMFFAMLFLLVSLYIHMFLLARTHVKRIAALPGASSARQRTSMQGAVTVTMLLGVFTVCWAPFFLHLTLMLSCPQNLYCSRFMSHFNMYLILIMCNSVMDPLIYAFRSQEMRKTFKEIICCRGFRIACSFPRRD
Field: value (include unit after the number)

Consider the worked cases shown below.
CCCC(=O)C1(c2ccccc2)CCN(C(=O)[C@@H](Cc2ccc(OC)cc2)NC(=O)CCc2cnc[nH]2)CC1 9.4 µM
CCCC(=O)C1(c2ccccc2)CCN(C(=O)[C@@H](Cc2ccc(OC)cc2)NC(=O)[C@@H](Cc2cnc[nH]2)NC(=O)c2ccccc2)CC1 2.1 µM

## Task # input compound: CCCC(=O)C1(c2ccccc2)CCN(C(=O)[C@@H](Cc2ccc(OC)cc2)NC(=O)[C@@H](Cc2c[nH]cn2)NC(C)=O)CC1 ; wanted: its EC50
## Result 3.9 µM

## Task # input compound: CCCC(=O)C1(c2ccccc2)CCN(C(=O)[C@@H](Cc2ccc(OC)cc2)NC(=O)[C@@H](N)Cc2cncn2C)CC1 ; wanted: its EC50
## Result 4.4 µM

## Task # input compound: CCCC(=O)C1(c2ccccc2)CCN(C(=O)[C@@H](Cc2ccc(OC)cc2)NC(=O)[C@H](N)Cc2cnc[nH]2)CC1 ; wanted: its EC50
## Result 10 µM

## Task # input compound: CCCC(=O)C1(c2ccccc2)CCN(C(=O)[C@@H](Cc2ccc(OC)cc2)NC(=O)[C@H](O)Cc2cnc[nH]2)CC1 ; wanted: its EC50
## Result 2.7 µM
